system: MRCKB; construct: gene CDC42BPB; conditions: concentration: 1 μM, replicates: in singlicate; n = 1;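 further: KINOMEscan kinase panel screen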
The threshold is 3%. Values of %Inh beneath it are tagged 1 (yes); values meeting or exceeding it are tagged 0 (no).

>>> print(df.to_string())
                                   compound  assayed_target  category
0  Cc1cccc(-c2nc(Nc3ccc4[nH]nnc4c3)c3ccccc3n2)n1 [GW867587]           MRCKB   1 (yes)

Next item in the queue.
Request: Criterion: %Inh strictly below 3%. Is it met by `Cn1ccc2ncnc(Oc3ccc(NC(=O)Nc4cccnc4)c(Cl)c3)c21` ?
Response: 1 (yes)

---

tested on: RSK4(Kin.Dom.1-N-terminal); construct: gene RPS6KA6; conditions: concentration: 1 μM, replicates: in singlicate; n = 1
Listed next: entries and their corresponding %Inh.
Write the quantity with the unit trailing the number.

>>> df
                                   molecule              assayed_target  observed_measurement
0  CC(=O)Nc1n[nH]c2ncc(-c3ccccc3)cc12 [SB-548492]  RSK4(Kin.Dom.1-N-terminal)                   36%

Request: Could you share which %Inh value was measured for Fc1cccc(COc2ccc(Nc3ncnc4nn5ccccc5c34)cc2Cl)c1 [GW689066] ?
Response: 0%

Request: // lookup %Inh for Nc1nc(-c2ccc3c(N)n[nH]c3c2)cc(N2CCC[C@@H](C(=O)Nc3ccccc3)C2)n1.O=C(O)C(F)(F)F.O=C(O)C(F)(F)F [GSK2288359]
Response: 0%

Request: Param item = O=C(Nc1ccccc1F)NC1CCN(c2ccnc(Nc3ccc(F)cc3)n2)C1 (stereo not shown) [GSK1379722] ; retrieve measured %Inh.
Response: 0%

---

# Lookup of reported %Inh keyed by entry
system: IRAK4; settings: concentration: 1 μM, replicates: in singlicate; n = 1

Below, 5 compounds whose answers are already recorded.
In [3]: df
Out[3]:
                                   compound  metric_name  observed_measurement
0  CN1c2ccc(-c3ccc(C(=O)NCCO)cc3)cc2-c2[nH]ncc2S1(=O)=O         %Inh                    0%
1  NC(=O)c1sc(-n2cnc3ccccc32)cc1OCc1ccccc1F [GSK1024306]         %Inh                    0%
2  CSc1ccc(NC2=C(c3ccccc3Cl)C(=O)NC2=O)cc1 [SB-342411]         %Inh                   19%
3    CCn1c(-c2ccncc2)nc2cnccc21 [SB-735216]         %Inh                   17%
4  Cc1ccc(NC(=O)c2cccc(C#N)c2)cc1-c1ccc(C(=O)Nc2ccncc2)cc1 [GSK1398463]         %Inh                   21%

Request: For the compound `Cn1ccc2ncnc(Nc3ccc(Oc4cccc(Cl)c4)c(Cl)c3)c21` , what %Inh is on record?
Response: 27%

Request: // returns reported %Inh for input COc1cc2c(Nc3cccc(NC(=O)c4ccccc4)c3)ncnc2cc1OCCCN1CCOCC1 [GSK223810]
Response: 0%

Request: Name the reported %Inh value associated with the compound CC(C)N1CCC(n2cnc(-c3ccc(F)cc3)c2-c2ccnc(N)n2)CC1 [SB-223132]
Response: 0%

Request: Could you share which %Inh value was measured for CN1CCC(n2cnc(-c3ccc(F)cc3)c2-c2ccnc(NC3CCNCC3)n2)CC1 [SB-229482] ?
Response: 4%
